Provenance of the data: paper PMC7305236

- measured-target: CXCR1 (Homo sapiens)
- Construct: expressed in transfected cells
- Sequence (P25024 whole entry): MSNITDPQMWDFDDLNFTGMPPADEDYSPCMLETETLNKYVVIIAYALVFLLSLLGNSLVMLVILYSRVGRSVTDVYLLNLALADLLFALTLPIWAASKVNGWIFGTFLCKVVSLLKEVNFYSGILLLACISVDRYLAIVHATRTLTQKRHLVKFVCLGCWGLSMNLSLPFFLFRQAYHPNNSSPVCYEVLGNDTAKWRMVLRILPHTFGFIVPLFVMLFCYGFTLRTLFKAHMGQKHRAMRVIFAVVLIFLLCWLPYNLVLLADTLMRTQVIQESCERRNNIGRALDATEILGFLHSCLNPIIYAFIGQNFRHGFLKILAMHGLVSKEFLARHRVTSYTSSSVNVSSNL
- method-notes: Figure S2a opioid peptide screen on chemokine receptors
- Type: cell-based
- Set-up: dose or concentration left out as unconfirmed
- condition: replicate 2, read-out: CXCR1 activity, ctrl+ = 100
Starred links: 1 amine or outer side, 2 acyl side, 3 side chain; linkers in the order of their positions; H or OH if unused. Non-standard residues stand in square brackets, D forms with d. Residues, ends and D or L forms follow the SMILES beside them. X1 = N[C@@H](Cc1ccccc1)CN(CC(=O)[*:2])[*:1]
Reported activation values for a set of molecules
The answer is to be given in %; state only the numeric part.

Study these solved cases before continuing.
molecule	numeric-result
CC(C)C[C@H](NC(=O)[C@H](CCCCN)NC(=O)[C@H](CCCN=C(N)N)NC(=O)[C@H](C)NC(=O)[C@H](CO)NC(=O)[C@H](CCCCN)NC(=O)[C@H](CCCN=C(N)N)NC(=O)[C@H](C)NC(=O)CNC(=O)[C@@H](NC(=O)[C@H](Cc1ccccc1)NC(=O)CNC(=O)CNC(=O)[C@@H](N)Cc1ccccc1)[C@@H](C)O)C(=O)N[C@@H](C)C(=O)N[C@@H](CC(N)=O)C(=O)N[C@@H](CCC(N)=O)C(=O)O	0.511
CSCC[C@H](NC(=O)[C@H](Cc1ccccc1)NC(=O)CNC(=O)CNC(=O)[C@@H](N)Cc1ccc(O)cc1)C(=O)N[C@@H](CCCNC(=N)N)C(=O)N[C@@H](CCCNC(=N)N)C(=O)N[C@H](C(N)=O)C(C)C	0.739
CC(C)C[C@H](NC(=O)[C@H](Cc1ccccc1)NC(=O)CNC(=O)CNC(=O)[C@@H](N)Cc1ccc(O)cc1)C(=O)N[C@@H](CCCN=C(N)N)C(=O)N[C@@H](CCCN=C(N)N)C(=O)N[C@@H](CCC(N)=O)C(=O)N[C@@H](Cc1ccccc1)C(=O)N[C@@H](CCCCN)C(=O)N[C@H](C(=O)N[C@H](C(=O)N[C@H](C(=O)O)[C@@H](C)O)C(C)C)C(C)C	-0.947
CC[C@H](C)[C@H](NC(=O)[C@H](CCCNC(=N)N)NC(=O)[C@H](CCCNC(=N)N)NC(=O)[C@H](CC(C)C)NC(=O)[C@H](Cc1ccccc1)NC(=O)CNC(=O)CN)C(=O)N[C@@H](CCCNC(=N)N)C(=O)N1CCC[C@H]1C(=O)N[C@@H](CCCCN)C(=O)N[C@@H](CC(C)C)C(=O)N[C@@H](CCCCN)C(=O)N[C@@H](Cc1c[nH]c2ccccc12)C(=O)N[C@@H](CC(=O)O)C(=O)N[C@@H](CC(N)=O)C(=O)N[C@@H](CCC(N)=O)C(=O)O	0.136
NC(=O)[C@H](Cc1ccccc1)NC(=O)[C@H](Cc1c[nH]c2ccccc12)NC(=O)[C@@H]1CCCN1C(=O)[C@@H](N)Cc1ccc(O)cc1 [Endomorphin-1]	-0.597

Now for another entry.
Exercise: So what does the record say about activation for C[C@H](NC(=O)CNC(=O)[C@@H](NC(=O)[C@H](Cc1ccccc1)NC(=O)CNC(=O)CNC[C@@H](N)Cc1ccccc1)[C@@H](C)O)C(=O)N[C@@H](CCCNC(=N)N)C(=O)N[C@@H](CCCCN)C(=O)N[C@@H](CO)C(=O)N[C@@H](C)C(=O)N[C@@H](CCCNC(=N)N)C(=O)N[C@@H](CCCCN)C(N)=O [FG Nociceptin 1-13] (H-[X1]GFTGARKSARK-NH2) ?
Key: 1.41

----------
- measured-target: CXCR5 (Homo sapiens)
- Construct: expressed in transfected cells
- Sequence (P32302 1-372): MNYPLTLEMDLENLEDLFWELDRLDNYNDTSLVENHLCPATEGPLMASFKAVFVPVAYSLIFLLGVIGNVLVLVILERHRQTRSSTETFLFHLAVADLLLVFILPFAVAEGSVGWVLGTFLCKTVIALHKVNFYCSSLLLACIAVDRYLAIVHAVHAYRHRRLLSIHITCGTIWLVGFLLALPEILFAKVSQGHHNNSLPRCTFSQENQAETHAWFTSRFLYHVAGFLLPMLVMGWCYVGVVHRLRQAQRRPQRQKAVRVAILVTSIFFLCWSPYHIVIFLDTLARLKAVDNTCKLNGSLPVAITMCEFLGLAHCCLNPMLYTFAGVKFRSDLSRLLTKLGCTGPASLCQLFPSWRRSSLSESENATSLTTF
- method-notes: Figure S2a opioid peptide screen on chemokine receptors
- Format: cell-based
- Parameters: dose or concentration left out as unconfirmed
- condition: replicate 3, read-out: CXCR5 activity, ctrl+ = 100
Starred links: 1 amine or outer side, 2 acyl side, 3 side chain; linkers in the order of their positions; H or OH if unused. Non-standard residues stand in square brackets, D forms with d. Residues, ends and D or L forms follow the SMILES beside them. X1 = N[C@@H](Cc1ccccc1)CN(CC(=O)[*:2])[*:1]
Reported activation values for a set of molecules
The answer is to be given in %; state only the numeric part.

Study these solved cases before continuing.
molecule	activation / %
C[C@H](NC(=O)CNC(=O)[C@@H](NC(=O)[C@H](Cc1ccccc1)NC(=O)CNC(=O)CNC(=O)[C@@H](N)Cc1ccccc1)[C@@H](C)O)C(=O)N[C@@H](CCCNC(=N)N)C(=O)N[C@@H](CCCCN)C(=O)N[C@@H](CO)C(=O)N[C@@H](C)C(=O)N[C@@H](CCCNC(=N)N)C(=O)N[C@@H](CCCCN)C(N)=O	-1.89
CSCC[C@H](NC(=O)[C@H](Cc1ccccc1)NC(=O)CNC(=O)CNC(=O)[C@@H](N)Cc1ccc(O)cc1)C(=O)N[C@@H](CCCNC(=N)N)C(=O)N[C@@H](CCCNC(=N)N)C(=O)N[C@H](C(N)=O)C(C)C	2.83
CC[C@H](C)[C@H](NC(=O)[C@H](CCCNC(=N)N)NC(=O)[C@H](CCCNC(=N)N)NC(=O)[C@H](CC(C)C)NC(=O)[C@H](Cc1ccccc1)NC(=O)CNC(=O)CNC(=O)[C@@H](N)Cc1ccc(O)cc1)C(=O)N[C@@H](CCCNC(=N)N)C(=O)N1CCC[C@H]1C(=O)N[C@@H](CCCCN)C(=O)N[C@@H](CC(C)C)C(=O)N[C@@H](CCCCN)C(=O)N[C@@H](Cc1c[nH]c2ccccc12)C(=O)N[C@@H](CC(=O)O)C(=O)N[C@@H](CC(N)=O)C(=O)N[C@@H](CCC(N)=O)C(=O)O	9.35

Exercise: So what does the record say about activation for C[C@H](NC(=O)CNC(=O)[C@@H](NC(=O)[C@H](Cc1ccccc1)NC(=O)CNC(=O)CNC[C@@H](N)Cc1ccccc1)[C@@H](C)O)C(=O)N[C@@H](CCCNC(=N)N)C(=O)N[C@@H](CCCCN)C(=O)N[C@@H](CO)C(=O)N[C@@H](C)C(=O)N[C@@H](CCCNC(=N)N)C(=O)N[C@@H](CCCCN)C(N)=O [FG Nociceptin 1-13] (H-[X1]GFTGARKSARK-NH2) ?
Key: -0.496

----------
- measured-target: CXCR3A (Homo sapiens, UniProt P49682)
- Construct: expressed in transfected cells; host or cells: U87 cells
- Sequence (P49682 1-368): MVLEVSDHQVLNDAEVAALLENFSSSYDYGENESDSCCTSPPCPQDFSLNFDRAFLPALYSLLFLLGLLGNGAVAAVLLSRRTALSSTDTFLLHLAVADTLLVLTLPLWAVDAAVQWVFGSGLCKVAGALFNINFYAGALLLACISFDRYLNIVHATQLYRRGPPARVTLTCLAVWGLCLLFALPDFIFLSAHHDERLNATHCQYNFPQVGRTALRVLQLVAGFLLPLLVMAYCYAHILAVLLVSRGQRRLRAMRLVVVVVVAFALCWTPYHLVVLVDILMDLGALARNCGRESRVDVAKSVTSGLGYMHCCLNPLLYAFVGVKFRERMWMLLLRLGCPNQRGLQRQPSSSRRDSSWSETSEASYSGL
- method-notes: Figure S2a opioid peptide screen on chemokine receptors
- Format: cell-based
- Parameters: dose or concentration left out as unconfirmed
- condition: replicate 3, read-out: CXCR3A activity, ctrl+ = 100
value-kind: activation (%)
The answer is to be given in %; state only the numeric part.

Exercise: So what does the record say about activation for CC[C@H](C)[C@H](NC(=O)[C@H](CCCNC(=N)N)NC(=O)[C@H](CCCNC(=N)N)NC(=O)[C@H](CC(C)C)NC(=O)[C@H](Cc1ccccc1)NC(=O)CNC(=O)CNC(=O)[C@@H](N)Cc1ccc(O)cc1)C(=O)N[C@@H](CCCNC(=N)N)C(=O)N1CCC[C@H]1C(=O)N[C@@H](CCCCN)C(=O)N[C@@H](CC(C)C)C(=O)N[C@@H](CCCCN)C(=O)N[C@@H](Cc1c[nH]c2ccccc12)C(=O)N[C@@H](CC(=O)O)C(=O)N[C@@H](CC(N)=O)C(=O)N[C@@H](CCC(N)=O)C(=O)O ?
Key: 7.92
